Measured normalized RNA/DNA level with ligand (log10) by item
B1: library; a variant is named by its letters at N, in order (parent)
chain: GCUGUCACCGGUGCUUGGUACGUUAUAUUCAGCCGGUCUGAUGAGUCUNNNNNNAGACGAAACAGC

Variants of: B1
Experiment: normalized RNA/DNA level with ligand (relative to sTRSVctl = 100) (log10 (% of sTRSVctl)); HEK293T overexpressing SLC46A1; ligand concentration (+) RNA-Seq: 6 mM; higher = less ribozyme self-cleavage, higher mRNA level
Conditions: with (6R,S)-folinic acid; ligand present: yes
Write the number on its own, no unit after it.

Would you please look over these solved cases?
{"columns": ["variantString", "experimentalResult"],
 "data": [
  ["GGUUCA", 2],
  ["GAUCUG", 2.03],
  ["AGUGUA", 2],
  ["GGCGAC", 1.99],
  ["UCGCGA", 2.02]
]}

Given the variant UUACCC , what is its reported normalized RNA/DNA level with ligand (log10)? 2.01

And GCAUGC ? 2

And UAAAUU ? 2.02
